List of kon values.
Target: T1, monovalent hVISTA-ECD (human VISTA extracellular domain with His tail) (human, UniProt Q9H7M9 33-193)
T1 construct: analyte flowed over captured antibody; also called huVISTA-His
T1 sequence (Q9H7M9 other isoform, or with tags, fused parts or gaps limits assumed): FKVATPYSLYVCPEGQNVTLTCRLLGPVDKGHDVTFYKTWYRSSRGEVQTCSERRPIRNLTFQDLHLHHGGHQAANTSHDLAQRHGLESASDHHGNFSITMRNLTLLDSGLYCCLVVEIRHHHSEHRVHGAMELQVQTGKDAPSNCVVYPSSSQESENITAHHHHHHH
Experiment: SPR, pH 7.4

- binder: "P1-064490 (41F11_VH_F27EY50EL96E) (antibody, V domains shown, Kabat positions; also called P1-064490-1; P1-064490-2) VH: QVQLVESGGGLVKPGGSLRLSCAASGETFSDYYMSWIRQAPGKGLEWVSEISNSGSPIYYADSVKGRFTISRDNAKNSLYLQMNSLRAEDTAVYYCARDEPGWYFDLWGRGTLVTVSS VL: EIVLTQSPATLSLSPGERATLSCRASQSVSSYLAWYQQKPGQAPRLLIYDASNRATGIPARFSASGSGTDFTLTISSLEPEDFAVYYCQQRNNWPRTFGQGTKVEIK"
  kon [M⁻¹ s⁻¹]: 43000
- binder: "P1-061528 (41F11 NGS mut VK_A64G/R91A) (antibody, V domains shown, also called P1-061528-2) VH: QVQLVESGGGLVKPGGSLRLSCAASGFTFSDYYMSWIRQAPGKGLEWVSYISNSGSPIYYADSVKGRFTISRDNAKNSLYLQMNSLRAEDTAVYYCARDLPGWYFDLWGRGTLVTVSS VL: EIVLTQSPATLSLSPGERATLSCRASQSVSSYLAWYQQKPGQAPRLLIYDASNRATGIPARFSGSGSGTDFTLTISSLEPEDFAVYYCQQANNWPRTFGQGTKVEIK"
  kon [M⁻¹ s⁻¹]: 120000
- binder: "P1-063153 (41F11_HC_mutant: D31E/Y50W/S55E/Y100E) (antibody, V domains shown, Kabat positions; also called P1-063153-5) VH: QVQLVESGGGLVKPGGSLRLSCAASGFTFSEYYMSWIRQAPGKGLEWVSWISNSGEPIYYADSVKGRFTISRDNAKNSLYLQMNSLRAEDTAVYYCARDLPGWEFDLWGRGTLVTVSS VL: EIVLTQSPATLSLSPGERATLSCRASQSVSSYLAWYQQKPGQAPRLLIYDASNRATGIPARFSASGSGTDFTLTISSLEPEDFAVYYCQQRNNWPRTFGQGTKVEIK"
  kon [M⁻¹ s⁻¹]: 780000
